Data credit: patent US10231954B2

In this section, each of the compounds is paired with its reported residual kinase activity, SGK1.
Biological target: SGK1 (Homo sapiens, UniProt O00141)
Sequence (O00141 whole entry, species assumed): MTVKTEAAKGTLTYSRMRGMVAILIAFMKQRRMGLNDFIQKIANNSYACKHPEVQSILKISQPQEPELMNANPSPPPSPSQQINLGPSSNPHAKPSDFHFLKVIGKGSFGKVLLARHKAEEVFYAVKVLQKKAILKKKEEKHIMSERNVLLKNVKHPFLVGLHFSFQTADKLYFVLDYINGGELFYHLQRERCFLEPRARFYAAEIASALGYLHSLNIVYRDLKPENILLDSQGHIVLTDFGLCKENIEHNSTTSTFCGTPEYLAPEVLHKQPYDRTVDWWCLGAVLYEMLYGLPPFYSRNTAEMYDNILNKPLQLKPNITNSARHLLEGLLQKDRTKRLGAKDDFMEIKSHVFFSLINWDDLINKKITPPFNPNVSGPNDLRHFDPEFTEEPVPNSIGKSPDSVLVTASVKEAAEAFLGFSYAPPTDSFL
Assay: Kinase profiling SGK1
Format: biochemical
Settings: 100 micromolar inhibitor concentration; 100 is no change

Worked set:
COMPOUND_STRUCTURE_STRING	EXPERIMENTAL_SYSTEM	residual kinase activity, SGK1
COc1ccc2sc(NC(=O)c3ccc(NC(C)=O)cc3)nc2c1	SGK1 (Homo sapiens, UniProt O00141)	101
COc1ccc2nc(NC(=O)c3ccccc3)sc2c1	SGK1 (Homo sapiens, UniProt O00141)	78
COc1ccc2sc(NC(=O)c3cccc(NC(C)=O)c3)nc2c1	SGK1 (Homo sapiens, UniProt O00141)	75
O=C(Nc1nc2ccc(O)cc2s1)c1ccccc1	SGK1 (Homo sapiens, UniProt O00141)	41
CC(=O)Nc1ccccc1C(=O)Nc1nc2ccc(O)cc2s1	SGK1 (Homo sapiens, UniProt O00141)	35

q: Please look up its residual kinase activity, SGK1: `O=C(Nc1nc2ccc(O)cc2s1)c1cccnc1`
a: 51

q: Please look up its residual kinase activity, SGK1: `CC(=O)Nc1nc2ccccc2s1`
a: 92

q: Please look up its residual kinase activity, SGK1: `CC(=O)Nc1nc2cc(C)ccc2s1`
a: 65

q: Please look up its residual kinase activity, SGK1: `O=C(Nc1nc2ccc(O)cc2s1)c1ccccn1`
a: 88

q: Please look up its residual kinase activity, SGK1: `COC(=O)c1cccc(C(=O)Nc2nc3ccc(F)cc3s2)c1`
a: 87
